- target: DNA gyrase (Escherichia coli, UniProt P0AES4+P0AES6)
- run_description: Inhibition of Escherichia coli DNA gyrase
attribute_measured: IC50

In plain terms, Cc1[nH]c(C(=O)Nc2nc3cc(NCc4ccccc4)c(C(=O)O)cc3s2)c(Cl)c1Cl has a documented IC50 of < 0.071 µM
